// IC50 collected for human factor IXa (Homo sapiens (Human), UniProt P00740)

Recorded results for 2 compounds are shown here.
[
  {
    "Compound": "Cc1ncn(-c2ccc(C(=O)NC3C4CCC3N(c3ncc(Cl)c5c(N)noc35)C4)c(Cl)c2)n1 (single isomer, unassigned) [Example 7.2]",
    "IC50": "100 to 1000 nM"
  },
  {
    "Compound": "Nc1noc2c(N3C[C@@H]4CC[C@H]3[C@@H]4NC(=O)c3ccc(-c4ccc(=O)n(C(F)F)c4)cc3Cl)ncc(Cl)c12 (relative stereo)",
    "IC50": "≤ 100 nM"
  }
]

Let us move to another entry and its IC50.
Input line: Entry Cc1cc2c(N)noc2c(N2C[C@@H]3CC[C@H]2[C@@H]3NC(=O)c2ccc(-c3cnc(C#N)nc3)cc2Cl)n1 (relative stereo) has what IC50?
Output line: ≤ 100 nM
